Each entry below lists one item and its recorded 5-HT2A pKi ± SEM value.
# Target desc: Serotonin 5-HT2A (human) (Homo sapiens (Human), UniProt P28223)
# Experiment summary: 5-HT2A receptor binding, [3H]-ketanserin competition in membrane fractions
# Assay context: 1 nM [3H]-ketanserin, Cheng-Prusoff, N=1-3
Give the figure only, with no unit attached.

These recorded examples may help you get a feel for the data.
[[record]]
molecule = "CCN(CC)CCc1c[nH]c2cccc(F)c12 [Example 8]"
recorded_metric = "5-HT2A pKi ± SEM"
experimental_result = 6.09

[[record]]
molecule = "C=CCN(CCC)CCc1c[nH]c2ccc(F)cc12 [compound 35]"
recorded_metric = "5-HT2A pKi ± SEM"
experimental_result = 6.38

[[record]]
molecule = "CCC(C)N(CC)CCc1c[nH]c2ccc(F)cc12 (stereo not shown) [compound 30]"
recorded_metric = "5-HT2A pKi ± SEM"
experimental_result = 5.70

[[record]]
molecule = "CCC(C)N(CCc1c[nH]c2ccc(F)cc12)C1CCC1 (stereo not shown) [compound 158]"
recorded_metric = "5-HT2A pKi ± SEM"
experimental_result = 6.08

[[record]]
molecule = "C#CCN(CCc1c[nH]c2ccc(F)cc12)C(C)CC (stereo not shown) [compound 176]"
recorded_metric = "5-HT2A pKi ± SEM"
experimental_result = 5.89


Noted 5-HT2A pKi ± SEM for CCCN(CCC)CCc1c[nH]c2ccc(F)cc12 [Example 5] , tested on Serotonin 5-HT2A (human) (Homo sapiens (Human), UniProt P28223): 6.20

Noted 5-HT2A pKi ± SEM for CCCN(CCc1c[nH]c2ccc(F)cc12)C(C)C [Example 4] , tested on Serotonin 5-HT2A (human) (Homo sapiens (Human), UniProt P28223): 6.02

Noted 5-HT2A pKi ± SEM for CCCN(CC#N)CCc1c[nH]c2c(F)cccc12 [compound 181] , tested on Serotonin 5-HT2A (human) (Homo sapiens (Human), UniProt P28223): 5.75

Noted 5-HT2A pKi ± SEM for CCN(C)CCc1c[nH]c2c(F)cc(F)cc12 [compound 69] , tested on Serotonin 5-HT2A (human) (Homo sapiens (Human), UniProt P28223): 6.90

Noted 5-HT2A pKi ± SEM for CCCN(CC)CCc1c[nH]c2c(F)cc(C)cc12 [compound 166] , tested on Serotonin 5-HT2A (human) (Homo sapiens (Human), UniProt P28223): 5.96
